Assay explanation: chemical genetic growth profiling, strain panel (AID 1159580);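 further: tested at 20 µM; growth read once vehicle control cultures reached saturation at 30 °C; 1 = growth at the plate median or of vehicle wells; lower values mean less growth of the strain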
Condition details: S. cerevisiae deletion strains, growth OD, locus YNL128W, strain TEP1, hits give low values
Screen size: about 5,500 compounds; about 2,000 (36%) were called active. Inconclusive results (about 18%) are left out. This is one part of the list.
For each entry below, report its normalized growth value.
Enter a number only.

Lookup: Fill blank: measured normalized growth of the compound COC(=O)CC1C(C)(C)C(OC(C)=O)[C@@H]2[C@@H](OC(C)=O)[C@]34O[C@@]2(O)[C@]1(C)C3CC[C@]1(C)C4=CC(=O)O[C@H]1c1ccoc1 (stereo not given in full) is ____.
Found: 0.97

Lookup: Could you share which normalized growth value was measured for CC(=O)N1CCCC1C(=O)O (stereo not given) ?
Found: 1.01

Lookup: Using the record for "CCCOC(=O)c1c(-c2ccccc2)nc(CC)c(C(=O)SCC)c1CCC" , report its normalized growth.
Found: 1.09

Lookup: // lookup normalized growth for CC(C)(C)NCC(O)COc1cccc2c1C[C@H](O)[C@H](O)C2 (stereo not given in full)
Found: 0.988

Lookup: # query: normalized growth of entry "CNC[C@H](O)c1cccc(O)c1"
Found: 1.01
